The measurements presented in this section are drawn from the supplement of paper PMC12783771.

B1: library; numbered along this chain (parent)
chain: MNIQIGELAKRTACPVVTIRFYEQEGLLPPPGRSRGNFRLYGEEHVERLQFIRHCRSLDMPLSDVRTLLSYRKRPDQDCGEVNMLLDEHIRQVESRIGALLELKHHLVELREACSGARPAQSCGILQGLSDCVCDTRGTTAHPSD

Variants of: B1
protocol notes: sfGFP reporter fluorescence (15 h) (µM FITC); higher = stronger transcriptional activation
settings: library round: Round 0; ligand: 1 µM Pb
Below, each of the variants is paired with its reported sfGFP reporter fluorescence value.

sequence record	sfGFP reporter fluorescence
MNIQIGELAKRTACPVVTIRFYEQEGLLPPPGNSRGNFRLYGEEHVERLQFIRHCRSLDMPLSDVRTLLSYRKRPDQDCGEVNMLLDEHIRQVESRIGALLELKHHLVELREACSGARPAQSCGILQGLSDCVCDTRGTTAHPSD [R33N]	0.0817
MNIQIGELAKRTACPVVTIRFYEQEGLLPPPGRSRGNFRLYGEEHVERLQFIRHCRSLDMPLSDVRTLLSYRKRPDQDCGEVNMLLDEHIRQVESRIGALLELKHHLVELREACSGARPAQSCGILAGLSDCVCDTRGTTAHPSD [Q127A]	0.0793
MNIQIGELAKRTACPVVTIRFYEQEGLLPPPGRSRGNFRLYGEEHVERLQFIRHCRSLDMPLSDVRTLLSYRKRPDQDCGEVNMLLDEHIRQVESRIGALLELKHHLVELREACSGARPAQSCGILQGLSDCVCDTRGTTAHASD [P143A]	0.0806
